In this section we review reported Activity values for a set of molecules.
experiment: Toxic hemolytic activity against RBC assessed as hemolytic index
Assay type: ADME, cell-based
experimentalParameters: erythrocyte
Form: value (number only, do not type unit).

CC(=O)O[C@@H]1CO[C@@H](O[C@@H]2[C@@H](O)[C@H](O[C@@H]3[C@H](O)[C@@H](O[C@@H]4O[C@H](CO)[C@H](O)[C@H](O[C@@H]5O[C@H](CO)[C@@H](O)[C@H](O)[C@H]5O)[C@H]4O)[C@H](O[C@@H]4C[C@@H]5CC[C@H]6[C@@H]7[C@H](O)[C@@H]8O[C@]9(CC[C@@H](C)CO9)[C@@H](C)[C@@H]8[C@@]7(C)CC[C@@H]6[C@@]5(C)C[C@H]4O)O[C@@H]3CO)O[C@H](CO)[C@H]2O)[C@@H](O)[C@H]1O :: 52000
C[C@@H]1CC[C@@]2(OC1)O[C@H]1[C@@H](O)[C@H]3[C@@H]4CC[C@H]5C[C@@H](O[C@@H]6O[C@H](CO)[C@H](O[C@@H]7O[C@H](CO)C(O)[C@H](O[C@@H]8OC[C@@H](O)[C@H](O)[C@H]8O)[C@H]7O[C@@H]7O[C@H](CO)[C@H](O)[C@H](O[C@@H]8O[C@H](CO)[C@@H](O)[C@H](O)[C@H]8O)[C@H]7O)[C@H](O)[C@H]6O)[C@H](O)C[C@]5(C)[C@H]4CC[C@]3(C)[C@H]1[C@@H]2C (some centres undefined) :: 135000
CC(=O)OC[C@H]1O[C@@H](O[C@H]2[C@@H](O)[C@@H](CO)O[C@@H](O[C@H]3[C@H](O[C@@H]4C[C@@H]5CC[C@H]6[C@@H]7[C@H](O)[C@@H]8O[C@]9(CC[C@@H](C)CO9)[C@@H](C)[C@@H]8[C@@]7(C)CC[C@@H]6[C@@]5(C)C[C@H]4O)O[C@H](CO)[C@H](O[C@@H]4O[C@H](CO)[C@@H](O)[C@H](O[C@@H]5OC[C@@H](O)[C@H](O)[C@@H]5O)[C@H]4O)[C@@H]3O)[C@@H]2O)[C@H](O)[C@@H](O)[C@@H]1O :: 40000

Input: Item CC(=O)OC[C@H]1O[C@@H](O[C@H]2[C@@H](O)[C@@H](CO)O[C@@H](O[C@H]3[C@H](O[C@@H]4C[C@@H]5CC[C@H]6[C@@H]7[C@H](O)[C@@H]8O[C@]9(CC[C@@H](C)CO9)[C@@H](C)[C@@H]8[C@@]7(C)CC[C@@H]6[C@@]5(C)C[C@H]4O)O[C@H](CO)[C@H](O[C@@H]4O[C@H](CO)[C@@H](O)[C@H](O[C@@H]5OC[C@@H](OC(C)=O)[C@H](O)[C@@H]5O)[C@H]4O)[C@@H]3O)[C@@H]2O)[C@H](O)[C@@H](O)[C@@H]1O has what recorded Activity?
Output: 43000

Data credit: ChEMBL document CHEMBL1141838
